Test system: SN12C
ASSAY REMARKS: NCI tumour cell line growth inhibition, 48 h
Calls of active or inactive are those of the source. Cut-off read from the data, not from the text of the source: active = GI50 up to about 1.1 µM and inactive = higher.
Would you mind answering with one of these outcomes? 1.0 for active, 0.0 for inactive

- C[N+](C)(C)/N=C\c1ccc(O)c(O)c1: 0.0
- COc1cccc(C23CCCC(C2)NCC3Br)c1OC (stereo unspecified): 0.0
- N=C(N)SCc1ccc(Cl)c2ccccc12.O=[N+]([O-])c1ccc(O)c([N+](=O)[O-])c1: 0.0
- COc1ccccc1/C=C/C(=O)c1sc(-c2cccnc2)nc1C: 0.0
- COc1cc2c(cc1OC)C(C1CC1)ON(C)CC2 (stereo unspecified): 0.0
- O=C(NC(Cc1ccc(Br)cc1)C(=O)O)c1ccc(I)cc1 (stereo unspecified): 0.0
- O=C(/C=C/c1ccc(-c2ccccc2[N+](=O)[O-])o1)NCc1ccc(C(=O)NCCc2ccccc2)cc1: 0.0
- COCC12CCC(OC)C34C5CC6(O)C(OC)C=C(C5C6OC(=O)c5ccccc5)C(C(OC)C13)C4N(C)C2 (stereo unspecified): 0.0

Problem: Returns: the outcome recorded for C=C1C(=O)[C@@]23CC[C@@H]4[C@@]5(C)CCC[C@@]4(OC5=O)C2(C)CC[C@]1(OC)C3 (stereo partly specified) in this assay.
Result: 0.0
